Data origin, for the record: patent US20200079833A1

# TESTED_ON: T1, glucose-dependent insulinotropic peptide (gastric inhibitory polypeptide) receptor (human, UniProt P48546 22-466)
# T1 sequence (looked up): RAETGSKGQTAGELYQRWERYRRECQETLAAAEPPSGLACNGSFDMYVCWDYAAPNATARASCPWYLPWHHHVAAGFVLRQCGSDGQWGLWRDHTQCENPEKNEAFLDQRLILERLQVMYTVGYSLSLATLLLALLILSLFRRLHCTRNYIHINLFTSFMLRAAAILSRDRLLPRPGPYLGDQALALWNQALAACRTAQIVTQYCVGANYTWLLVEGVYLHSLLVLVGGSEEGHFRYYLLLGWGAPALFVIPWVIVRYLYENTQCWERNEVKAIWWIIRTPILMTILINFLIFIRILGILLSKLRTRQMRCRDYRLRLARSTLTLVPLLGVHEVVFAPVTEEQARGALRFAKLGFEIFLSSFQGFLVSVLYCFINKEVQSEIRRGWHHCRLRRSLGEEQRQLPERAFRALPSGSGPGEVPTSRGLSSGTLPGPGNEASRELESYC
# ASSAY_NAME: cell-based or functional assay
Starred links: 1 amine or outer side, 2 acyl side, 3 side chain; linkers in the order of their positions; H or OH if unused. Non-standard residues stand in square brackets, D forms with d. Groups on a side chain read outwards from the residue. Primed or numbered codes have the meaning given here. No end group written: not given here. *: point of attachment. γGlu = O=C(O)[C@H](CCC(=O)[*:2])N[*:1]; Stearoyl = CCCCCCCCCCCCCCCCCC(=O)*; αMeF = C[C@](N)(Cc1ccccc1)C(=O)O; αMeK = C[C@](N)(CCCCN)C(=O)O; αMeS = C[C@](N)(CO)C(=O)O; PEG2′ = not defined here; Aib = CC(C)(N)C(=O)O
REPORTED_PROPERTY: Primary assay EC50 (cAMP), n1 (nM)

Answered examples (5):
H[Aib]EGS[αMeF]TSDVSS[αMeF]LEGEAAK([PEG2′-PEG2′-γGlu-Stearoyl])E[αMeF]IA[αMeF]VVKGG-NH2 [SEQ ID NO 40] = 85
H[Aib]EGSFTSDV[αMeS]S[αMeF]LEGEAAK([PEG2′-PEG2′-γGlu-Stearoyl])E[αMeF]IA[αMeF]VV[αMeK]GG-NH2 [SEQ ID NO 45] = 26
H[Aib]EGS[αMeF]TSDV[αMeS]S[αMeF]LEGEAAK([PEG2′-PEG2′-γGlu-Stearoyl])E[αMeF]IAWVV[αMeK]GG-NH2 [SEQ ID NO 49] = 25
H[Aib]EGS[αMeF]TSDVSK([PEG2′-PEG2′-PEG2′-Stearoyl])YLEGEAA[Aib]E[αMeF]IA[αMeF]VVEGG-NH2 [SEQ ID NO 63] = 25.7
H[Aib]EGS[αMeF]TSDVSS[αMeF]LEGEAAKE[αMeF]IA[αMeF]VVKGGK([PEG2′-PEG2′-γGlu-Stearoyl])-NH2 [SEQ ID NO 38] = 25

A = H[Aib]EGS[αMeF]TSDVSK([PEG2′-PEG2′-γGlu-Stearoyl])YLEGEAAKE[αMeF]IA[αMeF]VVEGG-NH2 [SEQ ID NO 57]
B = HXEGTFTSDVSSYLEGQAAKEFIAWLVKGR (Aib 2; α-MeSer 8; C-terminal amide) [SEQ ID NO 19]
Req: Given the two records A and B , choose the one whose Primary assay EC50 (cAMP), n1 value is lower. Let me know the label of the one you choose.
Resp: A
(A: 25 nM, B: 130 nM)
